# System: HeLa
# ASSAY: Primary qHTS to identify gynecologic anti-cancer compounds using libraries of approved drugs and bioactive compounds (AID 1345084); also: nearly all actives have a fitted effect of over 55% in size
# EXPERIMENTAL CONTEXT: Gynecologic cancer cell panel viability, ATPlite luminescence, 48 h; series mostly up to 57.5 µM
Results filed as inconclusive are left out. The source made the active and inactive calls. Calls follow the shape of the dose curve; as a rule, active = well fitted cell-killing curve with a large enough effect; inconclusive = small, poorly fitted or top-dose-only effect, or effect the other way; inactive = flat fitted curve, though single readings scatter.
Result category, one only: active, inactive

Would you mind telling me which call this test gave CC(=O)CCC1=C(C)C(O[C@@H]2O[C@H](CO)[C@@H](O)[C@H](O)[C@H]2O)C(O)CC1(C)C (some centres not stated) ?
inactive

Request: CC1(C)C2CC=C(COC3OC(COC4OCC(O)(CO)C4O)C(O)C(O)C3O)C1C2 (configuration not stated)
inactive

Request: CC(=O)O[C@H]1C[C@@]2(C)[C@@H](CC[C@H]3[C@@]4(C)C=CC(=O)[C@@H](C)[C@@H]4[C@H](O)C(=O)[C@@]32C)/C1=C(/CCC=C(C)C)C(=O)O
inactive

Request: CC(=O)O[C@@H]1[C@@H](O)[C@H](O[C@H]2CC[C@]34C[C@]35CC[C@]3(C)[C@@H]([C@@]6(C)CC[C@@H](C(C)(C)O)O6)[C@@H](O)C[C@@]3(C)[C@@H]5C[C@H](O[C@@H]3O[C@H](CO)[C@@H](O)[C@H](O)[C@H]3O)[C@H]4C2(C)C)OC[C@H]1O
inactive

Request: OCc1ccc(O[C@@H]2O[C@H](CO)[C@@H](O)[C@H](O)[C@H]2O)cc1
inactive

Request: C[C@@H]1O[C@@H](O[C@H]2[C@H](O)[C@@H](O)[C@H](OC3CCC4(C)C5CCC(C)(C(CO)OC6OC(CO)C(O)C(O)C6O)CC5=CCC4C3(C)C)O[C@@H]2CO)[C@H](O)[C@H](O)[C@H]1O (some centres not stated)
inactive

Request: Cc1ccc(C(=O)Nc2noc3ccccc23)cc1
active

* * *

# Test system: CASKI
# ASSAY: Primary qHTS to identify gynecologic anti-cancer compounds using libraries of approved drugs and bioactive compounds (AID 1345084); also: nearly all actives have a fitted effect of over 55% in size
# EXPERIMENTAL CONTEXT: Gynecologic cancer cell panel viability, ATPlite luminescence, 48 h; series mostly up to 57.5 µM
Records with an inconclusive call do not appear. Calls of active or inactive are those of the source. Calls come from the whole dose curve; as a rule, active = well fitted cell-killing curve with a large enough effect; inconclusive = small, poorly fitted or top-dose-only effect, or effect the other way; inactive = flat fitted curve, though single readings scatter.
Result category, one only: true (1) = active, false (0) = inactive

Would you mind telling me which call this test gave CC1(C)CCCC2(C)C1C(O)C=C(CO)C2(O)CO (stereo not drawn) ?
false (0)

Request: C[C@@H]1C(=O)O[C@H]2C[C@]34[C@H]5C[C@@H](C(C)(C)C)[C@]36[C@@H](OC(=O)[C@H]6O)O[C@]4(C(=O)O5)[C@]21O
false (0)

Request: O=C(OC[C@@]1(O)CO[C@@H](O[C@H]2[C@H](Oc3ccc(O)cc3)O[C@H](CO)[C@@H](O)[C@@H]2O)[C@@H]1O)c1ccc(O)cc1
false (0)

Request: Cc1ccc(-c2ccc3c(ccc4sc5c(c43)NC[C@@H](C)NC5=O)n2)cn1
false (0)

Request: C/C1=C\[C@H]2OC(=O)[C@@H](C)[C@@H]2CC/C(C(=O)O)=C/CC1
false (0)

Request: O=C1N=C(N2CCOCC2)CN1c1ccc(Cl)cc1
false (0)

Request: CC(=O)OC1CC2(C)C3=CCC4(C)C5C(O)C(O)C(C(C)C)C5(C)CCC4(C)C3CCC2C(C)(C)C1OC1OC(CO)C(O)C(O)C1O (stereo not drawn)
false (0)

Request: CC/C=C\CCO[C@@H]1O[C@H](CO[C@@H]2OC[C@H](O)[C@H](O)[C@H]2O)[C@@H](O)[C@H](O)[C@H]1O
false (0)

Request: O=C(/C=C/c1cccc(S(=O)(=O)Nc2ccccc2)c1)NO
true (1)

Request: O=C(O)c1cccc(S(=O)(=O)N2CCc3ccccc3C2)c1
false (0)

Request: C=C1C(O)C[C@@H]2C(C(=O)O)=CO[C@@H](O[C@@H]3O[C@H](CO)[C@@H](O)[C@H](O)[C@H]3OC(=O)c3ccc(O)cc3)[C@H]12 (stereo partly drawn)
false (0)

Request: CN1C2CCC1CC(OC(=O)[C@H](CO)c1ccccc1)C2 (stereo partly drawn)
false (0)

Request: O=C(O)c1cc(-c2c(-c3ccccc3)nn3ccccc23)n[nH]c1=O
false (0)

These measurements were taken from PubChem BioAssay (NCATS).
